Measurement target: T1, CLL-1 on the surface of CLL-1-positive AML cell lines (HL-60 WT, U937) (human, UniProt Q5QGZ9 1-265)
T1 construct: whole, on cells; also called HL-60 WT cells; U937 cells
T1 sequence (looked up): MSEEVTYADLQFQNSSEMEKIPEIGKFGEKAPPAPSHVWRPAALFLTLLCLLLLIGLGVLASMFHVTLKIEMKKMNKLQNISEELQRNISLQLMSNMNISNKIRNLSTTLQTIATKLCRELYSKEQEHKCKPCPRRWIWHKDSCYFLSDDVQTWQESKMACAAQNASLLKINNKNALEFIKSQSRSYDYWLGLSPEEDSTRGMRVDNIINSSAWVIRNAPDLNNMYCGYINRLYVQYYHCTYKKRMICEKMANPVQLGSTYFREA
Run description: multi-point flow cytometry on HL-60 WT cells, FLAG-tagged binder, anti-FLAG AlexaFluor 488
Measured endpoint: log10 of EC50 (log10 of the value in nM)

1) Anti-CLL-1 Binder Clone 1 (scFv, scFv (VL-linker-VH) from a fully human scFv phage library; not shown: FLAG tag) scFv: SYVLTQPPSVSVAPGQTARITCGGNNIGSKSVHWYQQKPGQAPVLVVYDDSDRPSGIPERFSGSNSGNTATLTISRVEAGDEADYYCQVWDSSSDHPVFGGGTQLIILGGGGSGGGGSGGGGSQVQLVQSGAEVKKPGSSVKVSCKASGGTFSSYAISWVRQAPGQGLEWMGRIIPILGIANYAQKFQGRVTITADESTSTAYMELSSLRSEDTAVYYCAREKDDILTGAYYYGMDVWGQGTTVTVSS; 0.51
2) Anti-CLL-1 Binder Clone 10 (scFv, scFv (VL-linker-VH); not shown: FLAG tag) scFv: DIQMTQSPSFLSASVGDRVTITCRASQGISSYLAWYQQKPGKAPKLLIYSASSLQSGVPSRFSGSGSGTDFTLTISSLQPEDFATYYCQQSYNSPTFGQGTRLEIKGGGGSGGGGSGGGGSQVQLVQSGAEVKKPGASVKVSCKASGYTFTGYYMHWVRQAPGQGLEWMGWMNPNSGNTGYAQKFQGRVTMTRNTSISTAYLELTSLTSDDTAVYYCARGDTGDFFDHWGQGTLVTVSS; -0.70
3) Anti-CLL-1 Binder Clone 42 (scFv, scFv (VL-linker-VH); not shown: FLAG tag) scFv: EIVLTQSPATLSLSPGERATLSCRASQSVSSYLAWYQQKPGQAPRLLIYDASNRATGIPDRFSGSGSGTDFTLTISRLEPEDFAVYYCQQYGSSPVTFGQGTKLEIKGGGGSGGGGSGGGGSQVQLVQSGAEVKKPGSSVKVSCKASGGTFSSYAISWVRQAPGQGLEWMGGIIPIFGTANYAQKFQGRVIMTTDTSTSTAHMELRSLRSDDTAVYYCARDADEFGAFDIWGQGTTVTVSS; 0.34
4) Anti-CLL-1 Binder Clone 40 (scFv, scFv (VL-linker-VH); not shown: FLAG tag) scFv: QSVLTQPPSVSAAPGQKVTISCSGSSSNIGNNYVSWYQQLPGTAPKLLIYDNNKRPSGIPDRFSGSESGTSATLGITGLQTGDEADYYCGTWDSSLSAWVFGGGTQLIILGGGGSGGGGSGGGGSQVQLQQSGPGLVKPSQTLSLTCAISGDSVSSNSAAWNWIRQSPSRGLEWLGRTHYRSKWYNDYAVSVKSRITISADTSKNQFSLQLNSVTPEDTAVYYCARDRYTVRPDAFDIWGQGTTVTVSS; 1.06
5) Anti-CLL-1 Binder Clone 11 (scFv, scFv (VL-linker-VH); not shown: FLAG tag) scFv: QSVLTQPASVSGSPGQSITISCTGTSSDVGASNSVSWYQRHPGKPPKLMIYDVSNRPSGISNRFSGSKSGNTASLTISGLQSEDEADYYCSSYTGSSTFVVFGGGTQLIILGGGGSGGGGSGGGGSEVQLVESGGGVVQPGGSLRLSCAASGFTFSSYWMSWVRQAPGKGLEWVANIRQDGSEKYYVDSVKGRFTISRDNAKNSLYLQMNSLRAEDAAVYYCAREQDTAMVAFDYWGQGTLVTVSS; -0.70
6) Anti-CLL-1 Binder Clone 38 (scFv, scFv (VL-linker-VH); not shown: FLAG tag) scFv: DIQMTQSPSTLSASVGDRVTITCRASQSISSWLAWYQQKPGKAPKLLIYTASSLQSGVPSRFSGSESGTDFTLTISSLQPEDFATYYCQQSYSTPLTFGGGTKVDIKGGGGSGGGGSGGGGSQVQLVQSGAEVKKPGASVKVSCKASGYTFTGYYMHWVRQAPGQGLEWMGWINPNSGGTNYAQKFQGRVTLTRDTSITTAYLELTSLTSDDTAVYYCARGDTGDFFDHWGQGTLVTVSS; 0.20

Reference source: patent US20250333515A1
